Notes on IC50 obtained with TEAD1 protein (YAP Binding Domain) (Homo sapiens, UniProt P28347).
Sequence (P28347 209-426 limits assumed): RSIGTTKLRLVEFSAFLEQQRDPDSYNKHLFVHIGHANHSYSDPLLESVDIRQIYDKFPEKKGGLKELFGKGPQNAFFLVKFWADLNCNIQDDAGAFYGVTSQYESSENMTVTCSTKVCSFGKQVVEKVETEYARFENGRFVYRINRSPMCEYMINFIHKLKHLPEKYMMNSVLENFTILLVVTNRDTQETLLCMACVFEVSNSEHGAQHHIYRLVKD

Here's what some known entries look like.
CN(C)C/C=C/C(=O)Nc1ccc(OCc2cccc(F)c2)c(F)c1
> 2000 nM
C=CC(=O)Nc1ccc(OCc2ccc(F)cc2Cl)c(F)c1
500 to 2000 nM
C=CC(=O)Nc1ccc(OCc2ccncc2)c(F)c1
> 2000 nM
C=CC(=O)Nc1ccc(OCc2cccc(F)c2)c(C#N)c1
500 to 2000 nM

Could you now look at the following compound, please?
Summary: C=CC(=O)Nc1ccc(C2COc3ccccc3C2)c(F)c1 (centres unmarked) , TEAD1 protein (YAP Binding Domain) (Homo sapiens, UniProt P28347), IC50 = 250 to 500 nM

----------
# Lookup of reported pIC50 keyed by entry
Molecular target: TEAD1 protein (YAP Binding Domain) (Homo sapiens)
Assay: TEAD1 lipid pocket compound displacement assay (TR-FRET, Cy5-probe)
Settings: 60 minutes incubation at room temperature; TR-FRET 665 nm/620 nm; read-out: CDA IC50
pIC50: −log10 of the molar value.

C=CC(=O)Nc1ccc(OCc2ccccc2)c(F)c1
6.30 to 6.60
C=CC(=O)Nc1ccc(OCc2cncc(C)c2)c(F)c1
< 5.70

Input C=CC(=O)Nc1ccc(OCc2ccc(C(=O)OC)s2)c(F)c1 . Output pIC50: 5.70 to 6.30

----------
# reported pIC50; entries follow
Target: TEAD1 protein (YAP Binding Domain) (Homo sapiens, UniProt P28347)
pIC50: −log10 of the molar value.

A selection of reference data follows.
C=CC(=O)Nc1ccc(OCc2c(F)cccc2Cl)c(F)c1
< 5.70
C=CC(=O)Nc1ccc(Oc2ccc(C(C)(C)C)cc2)c(F)c1
≥ 6.60
C=CC(=O)Nc1ccc(OCc2cccc(Cl)c2)c(F)c1
≥ 6.60

Form field, pIC50 with TEAD1 protein (YAP Binding Domain) (Homo sapiens, UniProt P28347), item C=CC(=O)Nc1ccc(OCc2cccc(Cl)c2Cl)c(F)c1 : ≥ 6.60

C=CC(=O)Nc1ccc(OCCCC(F)(F)F)c(F)c1 tested on TEAD1 protein (YAP Binding Domain) (Homo sapiens, UniProt P28347) gave pIC50: 5.70 to 6.30

The value of pIC50 recorded for C=CC(=O)Nc1ccc(OCc2cccc(F)c2)c(C2CC2)c1 when tested on TEAD1 protein (YAP Binding Domain) (Homo sapiens, UniProt P28347) reads 6.30 to 6.60

Summary: C=CC(=O)Nc1ccc(OCc2cccc(F)c2)c(C(F)(F)F)c1 , TEAD1 protein (YAP Binding Domain) (Homo sapiens, UniProt P28347), pIC50 = ≥ 6.60

Test item C=CC(=O)Nc1ccc(OCC2CCC(F)(F)CC2)c2ccccc12 ; TEAD1 protein (YAP Binding Domain) (Homo sapiens, UniProt P28347); reported pIC50 was ≥ 6.60

----------
pIC50: −log10 of the molar value.
// values below are pIC50; system is TEAD1 protein (YAP Binding Domain) (Homo sapiens, UniProt P28347)

Here's what some known entries look like.
C=CC(=O)Nc1ccc(Oc2ccccc2)c(F)c1 [Compound 112, N-(3-fluoro-4-phenoxyphenyl)acrylamide]
6.30 to 6.60
C=CC(=O)Nc1ccc(OCc2oc(=O)oc2C)c(F)c1
< 5.70

Now let's try a different one.
With TEAD1 protein (YAP Binding Domain) (Homo sapiens, UniProt P28347) as the test system, C=C=CC(=O)Nc1ccc(OCc2cccc(F)c2)c(F)c1 showed pIC50 of ≥ 6.60
